We begin with a simple list: items and their reported XC50.
# Test system: Plasmodium falciparum
# Test summary: GSK_TCMDC: Inhibition of Plasmodium falciparum 3D7 in whole erythrocytes, using parasite LDH activity as an index of growth.
# Type: functional, organism-based
# Experimental conditions: Plasmodium falciparum, 3D7
Value type: XC50 (nM)

INSERT INTO measurements (compound, assay_target, value_type, measured_value) VALUES
  ('COc1ccc(CNCc2ccc(-c3ccc(-c4nc5ccccc5[nH]4)cc3)cc2)cc1', 'Plasmodium falciparum', 'XC50', 241),
  ('O=C(NCCCCN1CCC(c2ccc3c(c2OCC2CC2)CCCC3)CC1)c1ccc(NC(=O)c2ccc(Cl)cc2)cc1', 'Plasmodium falciparum', 'XC50', 680),
  ('CN(Cc1ccncc1)C(Cc1ccccc1)C1CCN(Cc2ccc(O)c(Cl)c2)CC1 (stereo not given)', 'Plasmodium falciparum', 'XC50', 747),
  ('CC(=O)N(C)c1cccc(C(=O)Nc2cccc(-c3cccc(-c4nc5cc(C(F)(F)F)ccc5[nH]4)c3)c2)c1', 'Plasmodium falciparum', 'XC50', 236),
  ('CCc1cc2c(=O)c(-c3nc(C)cs3)c(N)oc2c(CN2CCCCC2)c1O', 'Plasmodium falciparum', 'XC50', 658);

---

# Test system: Plasmodium falciparum
# Test summary: GSK_TCMDC: Inhibition of Plasmodium falciparum 3D7 in whole erythrocytes, using parasite LDH activity as an index of growth.
# Assay type: functional, organism-based
# Experimental conditions: Plasmodium falciparum, 3D7
Parameter: XC50. Scope: all listed entries.
Value type: XC50 (nM)

INSERT INTO results (molecule, value_type, measured_value) VALUES
  ('CCN(CC)CCN(Cc1ccc(-c2ccc(C(F)(F)F)cc2)cc1)C(=O)Cn1c(CCc2cccc(F)c2F)cc(=O)c(C)c1C', 'XC50', 624),
  ('Cc1cccc2nc(-c3ccc(-c4ccc(CN5CCN(CCN6CCOCC6)CC5)cc4)cc3)[nH]c12', 'XC50', 231),
  ('N=C1C=C(N)C(=O)c2ccccc21', 'XC50', 1050),
  ('CN(C)c1cccc(NC(=O)N[C@H]2N=C(c3ccccc3)c3ccccc3N(CC(=O)N3CCCC3)C2=O)c1', 'XC50', 254),
  ('COc1cc(NC(=O)c2cc([N+](=O)[O-])ccc2NC(=O)CNC2CCCC(C)C2C)cc(OC)c1 (centres undefined)', 'XC50', 1040),
  ('O=S(=O)(c1cccc2cccnc12)N1CCN(C2CCCCC2)CC1', 'XC50', 765),
  ('COc1ccc2ncc(Cl)c(N3CCC(CCNCc4ccc5c(n4)NC(=O)CS5)CC3)c2c1', 'XC50', 961),
  ('CN1CCCC1CCNCc1cccc(-c2cnc(N3CCCC(C)(C)C3)nc2)c1 (centres undefined)', 'XC50', 927),
  ('Cc1cc(CN2CCC(N3CC(c4ccccc4)(c4ccccc4)OCC3=O)C2)ccc1O (centres undefined)', 'XC50', 1080);

---

# System: Plasmodium falciparum
# Test summary: GSK_TCMDC: Inhibition of Plasmodium falciparum 3D7 in whole erythrocytes, using parasite LDH activity as an index of growth.
# Assay type: functional, organism-based
# Experimental conditions: Plasmodium falciparum, 3D7
Field 'label' (enum: TRUE / FALSE). Set to TRUE when XC50 is strictly under 600 nM; else FALSE.

INSERT INTO assay_data (compound, category_label) VALUES
  ('CCCCCCN1CCN(Cc2cccc(NC(=O)c3cccc(OCC)c3)c2)CC1', 'FALSE'),
  ('CC(CNC(=O)C(c1cc2ccccc2o1)N1CCN(C(c2ccccc2)c2ccccc2)CC1)c1ccccc1 (centres undefined)', 'FALSE'),
  ('COc1ccc(CNC2CCN(C)CC2)cc1-c1ccc(S(=O)(=O)NCC2CCCO2)s1 (centres undefined)', 'FALSE'),
  ('Cc1noc(C)c1-c1ccc2c(Nc3ccc([N+](=O)[O-])cc3)c(C(N)=O)cnc2c1', 'FALSE'),
  ('COc1cccc(NC(=O)[C@H](C(C)C)n2c(=O)[nH]c3ccccc3c2=O)c1', 'TRUE'),
  ('CCOC(=O)c1ccc(OCc2ccc(-c3ccccc3)cc2)cc1', 'FALSE'),
  ('Cc1cccc2nc(-c3ccc(-c4cccc(CNCc5cccc(N)c5)c4)s3)[nH]c12', 'TRUE'),
  ('CCc1c[nH]c2c(N3CCCS3(=O)=O)cc(C(=O)N[C@@H](Cc3ccccc3)[C@H](O)CNC3CCCCC3)cc12', 'FALSE'),
  ('CCCN(CCC)C(=O)c1cc(C(=O)N[C@@H](Cc2ccccc2)[C@H](O)CNC(C)(C)c2cccc(OC)c2)cc(N2CCCCS2(=O)=O)c1', 'TRUE');
